Reported R/T (mice responders versus total of mice tested) values for a set of sequences
System: TEL/AML+ EL4-HHD cells
assay_protocol: Tertiary CTL response of immunized HHD mice against TEL/AML+ EL4-HHD cells
Format: in vivo
conditions_used: responder = at least 10% specific lysis, TEL/AML+ EL4-HHD targets

Here are 4 sequences together with their reported answers.
| sequence_input | test_value |
| --- | --- |
| RIAESILGM [R9M-5S] | 11/14 |
| RIAECILGM (listed as Homo sapiens) [R9M, reference compound] | 5/10 |
| RIAEAILGM [R9M-5A] | 6/10 |
| YIAEAILGM [Y9M-5A] | 5/10 |

Next item in the queue.
[Q] I am curious: what R/T (mice responders versus total of mice tested) value has been reported for YIAESILGM [Y9M-5S] ?
[A] 6/10

###

The following sequences are shown together with reported percentage inhibition of the binding of F10V, ratio peptide/125I-F10V 25/1 values.
target_desc: HLA-A2.01 molecule (Homo sapiens, UniProt P04439, D140Y/D185E/D98H/E176V/E277Q/G131W/G231S/I119V/I121R/I166T/I218V/L300P/L318F/N151K/N90K/P208A/P217A/Q86G/Q94H/R138H/R169H/T345S)
Construct: stability conferred on the peptide MHC complex thus formed at the cell surface by using tap T2 cells expressing HLA-A*02.01; endogenous in cells; host or cells: T2 cells
assay_protocol: Inhibition of binding of 125I-F10V (HBVc.18-27) to soluble HLA-A2.01 molecules
conditions_used: ratio peptide/125I-F10V 25/1
Answer in %, number only, no unit symbol.

The examples below pair each entry with its known result.
| sequence_input | test_value |
| --- | --- |
| RIAECILGM (listed as Homo sapiens) [R9M, reference compound] | 69 |
| YIAEAILGM [Y9M-5A] | 87 |
| AMPIGRIAE [A9E] | 57 |
| RIAESILGM [R9M-5S] | 75 |
| YIAESILGM [Y9M-5S] | 37 |

Moving on to another sequence below.
[Q] Given RIAEAILGM [R9M-5A] , state its recorded percentage inhibition of the binding of F10V, ratio peptide/125I-F10V 25/1.
[A] 72

###

target_desc: HLA-A2.01 molecule (Homo sapiens, UniProt P04439, D140Y/D185E/D98H/E176V/E277Q/G131W/G231S/I119V/I121R/I166T/I218V/L300P/L318F/N151K/N90K/P208A/P217A/Q86G/Q94H/R138H/R169H/T345S)
Construct: stability conferred on the peptide MHC complex thus formed at the cell surface by using tap T2 cells expressing HLA-A*02.01; endogenous in cells; host or cells: T2 cells
assay_protocol: Inhibition of binding of 125I-F10V (HBVc.18-27) to soluble HLA-A2.01 molecules
conditions_used: ratio peptide/125I-F10V 10/1
Quick rule: percentage inhibition of the binding of F10V, ratio peptide/125I-F10V 10/1 of at least 60% means T, below that means F.

Past entries and their recorded results:
| sequence_input | answer_label |
| --- | --- |
| YIAEAILGM [Y9M-5A] | T |
| YIAESILGM [Y9M-5S] | F |

[Q] Hi team, for RIAESILGM [R9M-5S] , is the recorded percentage inhibition of the binding of F10V, ratio peptide/125I-F10V 10/1 at or above 60%?
[A] T

[Q] Now consider RIAECILGM (listed as Homo sapiens) [R9M, reference compound] and answer again.
[A] T

###

target_desc: HLA-A2.01 molecule (Homo sapiens, UniProt P04439, D140Y/D185E/D98H/E176V/E277Q/G131W/G231S/I119V/I121R/I166T/I218V/L300P/L318F/N151K/N90K/P208A/P217A/Q86G/Q94H/R138H/R169H/T345S)
Construct: stability conferred on the peptide MHC complex thus formed at the cell surface by using tap T2 cells expressing HLA-A*02.01; endogenous in cells; host or cells: T2 cells
assay_protocol: Stabilization of HLA-A2.01 molecules at the surface of T2 cells (RA and DC50)
Assay type: binding
conditions_used: ratio of concentrations of tested versus reference peptide to attain 20% of maximal number of stabilized molecules
assay_endpoint: Measurement of stabilization RA

Recorded Measurement of stabilization RA, per entry:
| sequence_input | test_value |
| --- | --- |
| AMPIGRIAE [A9E] | 10-100 |
| YIAECILGM [Y9M] | >100 |
| YIGRIAECI [Y9I] | >100 |
| ILKEPVHGV [HIV 1 rt.476, reference compound] | 1 |
| YIAEAILGM [Y9M-5A] | 0.9 |

[Q] Fill in: Measurement of stabilization RA of RIAECILGM (listed as Homo sapiens) [R9M, reference compound] is ___
[A] 2.9

[Q] Record: RIAEAILGM [R9M-5A]
[A] 3.2

[Q] What do we get for YMPIGRIAE [Y9E] ?
[A] >100

###

target_desc: HLA-A2.01 molecule (Homo sapiens, UniProt P04439, D140Y/D185E/D98H/E176V/E277Q/G131W/G231S/I119V/I121R/I166T/I218V/L300P/L318F/N151K/N90K/P208A/P217A/Q86G/Q94H/R138H/R169H/T345S)
Construct: stability conferred on the peptide MHC complex thus formed at the cell surface by using tap T2 cells expressing HLA-A*02.01; endogenous in cells; host or cells: T2 cells
assay_protocol: Stabilization of HLA-A2.01 molecules at the surface of T2 cells (RA and DC50)
Format: binding
conditions_used: overnight incubation, indirect immunofluorescence/FACS at 0, 2, 4 and 5 h
assay_endpoint: Measurement of stabilization DC50 (half-life of peptide-HLA-A2.1 stabilized complexes)

| sequence_input | test_value |
| --- | --- |
| YMPIGRIAE [Y9E] | 0 h |
| YIAEAILGM [Y9M-5A] | 2 to 5 h |
| AMPIGRIAE [A9E] | 2 to 4 h |
| YIAECILGM [Y9M] | <2 h |
| PIGRIAECI [P91] | 0 h |
| ILKEPVHGV [HIV 1 rt.476, reference compound] | 5 h |
| YIAESILGM [Y9M-5S] | 2 to 5 h |
| YIGRIAECI [Y9I] | <2 h |

[Q] Data request, read-out Measurement of stabilization DC50 (half-life of peptide-HLA-A2.1 stabilized complexes), for RIAEAILGM [R9M-5A]
[A] <2 h

[Q] // same read-out, input: RIAESILGM [R9M-5S]
[A] 2 h

[Q] Input RIAECILGM (listed as Homo sapiens) [R9M, reference compound]
[A] <2 h

###

target_desc: HLA-A2.01 molecule (Homo sapiens, UniProt P04439, D140Y/D185E/D98H/E176V/E277Q/G131W/G231S/I119V/I121R/I166T/I218V/L300P/L318F/N151K/N90K/P208A/P217A/Q86G/Q94H/R138H/R169H/T345S)
Construct: stability conferred on the peptide MHC complex thus formed at the cell surface by using tap T2 cells expressing HLA-A*02.01; endogenous in cells; host or cells: T2 cells
assay_protocol: Stabilization of HLA-A2.01 molecules at the surface of T2 cells (RA and DC50)
Type: binding
conditions_used: ratio of concentrations of tested versus reference peptide to attain 20% of maximal number of stabilized molecules
// values below are reported Measurement of stabilization RA
Give only the figure.

| sequence_input | Measurement of stabilization RA |
| --- | --- |
| YIAESILGM [Y9M-5S] | 1.4 |

[Q] // query Measurement of stabilization RA value for entry RIAESILGM [R9M-5S]
[A] 2.2

###

Test system: RMAS-HHD cells stimulated with the mutated peptide
assay_protocol: Tertiary CTL response of immunized HHD mice against RMAS-HHD cells stimulated with the mutated peptide
Assay type: in vivo
conditions_used: responder = at least 10% specific lysis, targets with mutated peptide
assay_endpoint: R/T (mice responders versus total of mice tested)

Solved cases below.
| sequence_input | test_value |
| --- | --- |
| YIAESILGM [Y9M-5S] | 9/10 |
| RIAESILGM [R9M-5S] | 6/10 |
| YIAEAILGM [Y9M-5A] | 9/10 |
| RIAEAILGM [R9M-5A] | 1/10 |

[Q] Which R/T (mice responders versus total of mice tested) value is on record for RIAECILGM (listed as Homo sapiens) [R9M, reference compound] ?
[A] 2/10

Reference source: patent US8303957B2
